# Tested on: 475296-252-R-J1-PDC spheroid viability
# assay: Anticancer human tumor 475296-252-R-J1-PDC patient-derived rectal carcinoma cell line growth inhibition [PI3K]
# recorded.conditions: second compound 0.01 µM; first compound 3.16 µM; stronger effect = lower value; spheroids with HUVEC and MSC
Reported viability, T/C values for a set of molecules
assay.readout: viability, T/C (%)

molecule	assay.readout	observed
C[C@@H](NC(=O)c1ncnc(N)c1Cl)c1ncc(C(=O)Nc2cc(C(F)(F)F)c(Cl)cn2)s1 + COc1c(OCCCN2CCOCC2)ccc2c3n(c(=NC(=O)c4cnc(N)nc4)nc12)CCN3	viability, T/C	101
Cn1nccc1Nc1nccc(-c2ccn(C(CO)c3ccc(Cl)c(F)c3)c(=O)c2)n1 (stereo not drawn) + COc1c(OCCCN2CCOCC2)ccc2c3n(c(=NC(=O)c4cnc(N)nc4)nc12)CCN3	viability, T/C	70.6
CC(Cn1ccc(-c2ccc(C#N)c(Cl)c2)n1)NC(=O)c1cc(C(C)O)[nH]n1 (stereo not drawn) + CC(Nc1ccc2c(c1)OCCn1cc(N3C(=O)OCC3C(F)F)nc1-2)C(N)=O	viability, T/C	98.4

---

# Tested on: 475296-252-R-J1-PDC spheroid viability
# assay: Anticancer human tumor 475296-252-R-J1-PDC cell line growth inhibition [PI3K];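 further: spheroids exposed to agents for seven days before readout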
# recorded.conditions: curve of first compound; second compound 1 µM; spheroids with HUVEC and MSC

molecule	IC50
CC1(C)CCC(CN2CCN(c3ccc(C(=O)NS(=O)(=O)c4ccc(NCC5CCOCC5)c([N+](=O)[O-])c4)c(Oc4cnc5[nH]ccc5c4)c3)CC2)=C(c2ccc(Cl)cc2)C1 + Cc1nc(NC(=O)N2CCCC2C(N)=O)sc1-c1ccnc(C(C)(C)C(F)(F)F)c1	> 10 µM
CC1(C)CCC(Nc2ncc(C(F)(F)F)c(-c3c[nH]c4c(P(C)(C)=O)c(C#N)ccc34)n2)CN1 (centres undefined) + CC(Nc1ccc2c(c1)OCCn1cc(N3C(=O)OCC3C(F)F)nc1-2)C(N)=O	> 10 µM
Cn1nccc1Nc1nccc(-c2ccn(C(CO)c3ccc(Cl)c(F)c3)c(=O)c2)n1 (centres undefined) + CC(Nc1ncnc2nc[nH]c12)c1cc2cccc(Cl)c2c(=O)n1-c1ccccc1	> 10 µM
CC(=O)c1c(C)c2cnc(Nc3ccc(N4CCNCC4)cn3)nc2n(C2CCCC2)c1=O + CC(Nc1ccc2c(c1)OCCn1cc(N3C(=O)OCC3C(F)F)nc1-2)C(N)=O	> 0.1 µM

---

# System: 475296-252-R-J1-PDC spheroid viability
# assay: Anticancer human tumor 475296-252-R-J1-PDC cell line growth inhibition [PI3K];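 further: spheroids exposed to agents for seven days before readout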
# recorded.conditions: second compound 10 µM; first compound 0.0316 µM; stronger effect = lower value; spheroids with HUVEC and MSC
# Description: Combinatorial screen of targeted agents with the PI3K inhibitors inavolisib, alpelisib, duvelisib, and copanlisib in multi-cell type tumor spheroids A high-throughput screen of multi-cell type tumor spheroids was designed to identify active combinations of targeted small molecules and PI3K pathway inhibitors. […] Compounds. […] If the clinical Cmax for an agent had not been determined, the highest concentration tested was 10 microM. […]
assay.readout: viability, T/C (%)

molecule	readout.unit	observed
CCN1CCN(Cc2ccc(Nc3ncc(F)c(-c4cc(F)c5nc(C)n(C(C)C)c5c4)n3)nc2)CC1 + Cc1nc(NC(=O)N2CCCC2C(N)=O)sc1-c1ccnc(C(C)(C)C(F)(F)F)c1	%	96.7
Cn1ncc(Cl)c1-c1cc(C(=O)NC(CN)Cc2cccc(F)c2)sc1Cl (stereo unspecified) + CC(Nc1ncnc2nc[nH]c12)c1cc2cccc(Cl)c2c(=O)n1-c1ccccc1	%	92.3
CC1(C)CCC(CN2CCN(c3ccc(C(=O)NS(=O)(=O)c4ccc(NCC5CCOCC5)c([N+](=O)[O-])c4)c(Oc4cnc5[nH]ccc5c4)c3)CC2)=C(c2ccc(Cl)cc2)C1 + CC(Nc1ncnc2nc[nH]c12)c1cc2cccc(Cl)c2c(=O)n1-c1ccccc1	%	78.5
CC(Cn1ccc(-c2ccc(C#N)c(Cl)c2)n1)NC(=O)c1cc(C(C)O)[nH]n1 (stereo unspecified) + CC(Nc1ncnc2nc[nH]c12)c1cc2cccc(Cl)c2c(=O)n1-c1ccccc1	%	95
CC(C)NCC(C(=O)N1CCN(c2ncnc3c2C(C)CC3O)CC1)c1ccc(Cl)cc1 (stereo unspecified) + CC(Nc1ncnc2nc[nH]c12)c1cc2cccc(Cl)c2c(=O)n1-c1ccccc1	%	98
Cn1nccc1Nc1nccc(-c2ccn(C(CO)c3ccc(Cl)c(F)c3)c(=O)c2)n1 (stereo unspecified) + CC(Nc1ncnc2nc[nH]c12)c1cc2cccc(Cl)c2c(=O)n1-c1ccccc1	%	90.9
CCCS(=O)(=O)Nc1ccc(F)c(C(=O)c2c[nH]c3ncc(-c4ccc(Cl)cc4)cc23)c1F + CC(Nc1ncnc2nc[nH]c12)c1cc2cccc(Cl)c2c(=O)n1-c1ccccc1	%	101
CCN1CCN(Cc2ccc(Nc3ncc(F)c(-c4cc(F)c5nc(C)n(C(C)C)c5c4)n3)nc2)CC1 + CC(Nc1ncnc2nc[nH]c12)c1cc2cccc(Cl)c2c(=O)n1-c1ccccc1	%	87.4
C#Cc1c(F)ccc2cc(O)cc(-c3ncc4c(N5CC6CCC(C5)N6)nc(OCC56CCCN5CC(F)C6)nc4c3F)c12 (stereo unspecified) + Cc1nc(NC(=O)N2CCCC2C(N)=O)sc1-c1ccnc(C(C)(C)C(F)(F)F)c1	%	73.4
C=CC(=O)N1CCN(c2nc(=O)n(-c3c(C)ccnc3C(C)C)c3nc(-c4c(O)cccc4F)c(F)cc23)C(C)C1 (stereo unspecified) + Cc1nc(NC(=O)N2CCCC2C(N)=O)sc1-c1ccnc(C(C)(C)C(F)(F)F)c1	%	94.6
CC1(C)CCC(CN2CCN(c3ccc(C(=O)NS(=O)(=O)c4ccc(NCC5CCOCC5)c([N+](=O)[O-])c4)c(Oc4cnc5[nH]ccc5c4)c3)CC2)=C(c2ccc(Cl)cc2)C1 + Cc1nc(NC(=O)N2CCCC2C(N)=O)sc1-c1ccnc(C(C)(C)C(F)(F)F)c1	%	86.5
